STUDY_TARGET: Mitogen-activated protein kinase 8 (Homo sapiens)
PROTOCOL_DESCRIPTION: DELFIA Assay (Dissociation Enhanced Lanthanide Fluoro-Immuno Assay)
PARTICULARS: pH 7.8
pIC50: −log10 of the molar value.
VALUE_KIND: pIC50

INSERT INTO assay_data (mol_smiles, value_kind, limit_sign, numeric_value) VALUES
  ('Cc1nc(Sc2nnnn2-c2ccccc2)sc1C(=O)O', 'pIC50', '=', 5.12),
  ('O=[N+]([O-])c1cnc(Sc2nnnn2-c2ccccc2)s1', 'pIC50', '=', 6.74),
  ('O=c1[nH]nc(Sc2ncc([N+](=O)[O-])s2)n1-c1ccccc1', 'pIC50', '=', 6.63),
  ('c1ccc(CSc2nnnn2-c2ccccc2)cc1', 'pIC50', '<', 4.60),
  ('O=c1[nH]nc(Sc2ccc([N+](=O)[O-])s2)n1-c1ccc2c(c1)OCCO2', 'pIC50', '<', 4.60);

###

STUDY_TARGET: Mitogen-activated protein kinase 8 (Homo sapiens, UniProt P45983)
Sequence (P45983 whole entry): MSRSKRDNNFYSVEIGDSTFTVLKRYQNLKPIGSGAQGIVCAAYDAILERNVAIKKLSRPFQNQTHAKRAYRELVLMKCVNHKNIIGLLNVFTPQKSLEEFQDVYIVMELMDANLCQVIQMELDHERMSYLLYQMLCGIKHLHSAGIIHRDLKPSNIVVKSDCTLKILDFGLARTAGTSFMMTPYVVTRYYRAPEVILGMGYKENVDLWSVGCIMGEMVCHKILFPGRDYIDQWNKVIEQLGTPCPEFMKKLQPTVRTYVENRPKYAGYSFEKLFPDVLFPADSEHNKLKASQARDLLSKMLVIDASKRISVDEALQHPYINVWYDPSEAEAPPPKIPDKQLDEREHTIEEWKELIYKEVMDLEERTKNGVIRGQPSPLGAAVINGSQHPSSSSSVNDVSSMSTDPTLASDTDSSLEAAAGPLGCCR
PROTOCOL_DESCRIPTION: In Vitro Kinase Assay (LanthaScreen Kinase Assay)
PARTICULARS: pH 7.5; 22 °C
pIC50: −log10 of the molar value.
Reported pIC50 by item:
VALUE_KIND: pIC50

INSERT INTO measurements (mol_smiles, limit_sign, numeric_value) VALUES
  ('c1ccc(CSc2nnnn2-c2ccccc2)cc1', '<', 4.00),
  ('Cc1nc(Sc2nnnn2-c2ccccc2)sc1C(=O)O', '<', 4.00),
  ('O=c1[nH]nc(Sc2ncc([N+](=O)[O-])s2)n1-c1ccccc1', '=', 5.51),
  ('O=c1[nH]nc(Sc2ccc([N+](=O)[O-])s2)n1-c1ccc2c(c1)OCCO2', '<', 4.00),
  ('O=[N+]([O-])c1cnc(Sc2nnnn2-c2ccccc2)s1', '=', 5.48);
